experiment: TLR3 IRF3 reporter activation blockers – cell-based, poly I:C stimulus, luciferase, 10K MLSCN set, primary screen (AID 602277); settings: HEK293-TLR3 RL24 IRF3 luciferase reporter, at 10 µM, hits give high values
measurement_label: inhibition (%)
Report only the number, with the unit % understood.

Problem: Which inhibition value belongs to CCN1CCN(Cc2ccccc2NC(=O)Nc2ccc(C)cc2)CC1 ?
Solution: -69.1

Problem: Which inhibition value belongs to COc1ccc(-c2coc3cc(O)cc(O)c3c2=O)cc1 ?
Solution: -200

Problem: Which inhibition value belongs to Cc1[nH]c(=O)[nH]c(=O)c1S(=O)(=O)N1CCN(c2cccc(Cl)c2)CC1 ?
Solution: -11.6

Problem: Which inhibition value belongs to CCOc1cccc(Oc2ccc(C(F)(F)F)cn2)c1 ?
Solution: 3.43

Problem: Which inhibition value belongs to COCCNC(=O)C(C)OC(=O)c1nsc(Cl)c1Cl (stereo not given) ?
Solution: -22

Problem: Which inhibition value belongs to C=CCOc1cccc(C2/C(=C(\O)c3ccc(F)cc3)C(=O)C(=O)N2CCN(C)C)c1 (stereo not given) ?
Solution: 15.2

Problem: Which inhibition value belongs to CCOC(=O)N1CCC(NC(=O)c2ccc3nc(N4CCOCC4)sc3c2)CC1 ?
Solution: 12.3

Problem: Which inhibition value belongs to CS(=O)(=O)N(CC(=O)N1CCN(c2cccc(Cl)c2)CC1)C1CCCCC1 ?
Solution: 0.307

Problem: Which inhibition value belongs to O=C(CCNC(=O)Cn1ccc2ccccc2c1=O)NCCN1CCN(c2ccccc2F)CC1 ?
Solution: 14.1

Problem: Which inhibition value belongs to CCN1CCN(Cc2ccc(NC(=O)Nc3ccc(SC)cc3)cc2)CC1 ?
Solution: -81.3

Problem: Which inhibition value belongs to COc1ccccc1OCCn1c(=O)sc2ccccc21 ?
Solution: 6.17

Problem: Which inhibition value belongs to O=C(O)CCC(=O)Nc1ccc(S(=O)(=O)Nc2nccs2)cc1 ?
Solution: 37.7

Problem: Which inhibition value belongs to CC(NC(=O)c1ccccc1NC(=O)c1ccco1)C(=O)O (stereo not given) ?
Solution: 20

Problem: Which inhibition value belongs to C[N+]1=C2CCCCCN2C(O)(c2ccccc2)C1 (stereo not given) ?
Solution: 17.2

Problem: Which inhibition value belongs to Cc1nc2sc(C(c3cccc(F)c3)N3CCN(C(=O)c4ccco4)CC3)c(O)n2n1 (stereo not given) ?
Solution: -22.6

Problem: Which inhibition value belongs to Cc1cc(C)c2c(=O)[nH]c(=O)n(Cc3ccccc3)c2n1 ?
Solution: 27.4

Problem: Which inhibition value belongs to COc1cc(C2C(C#N)=C(N)OC3=C2C(=O)CCC3)ccc1OC(=O)N1CCOCC1 (stereo not given) ?
Solution: 6.55

Problem: Which inhibition value belongs to CC1(C)CC(=O)c2cc(OCC(=O)N3CCN(c4ccccc4F)CC3)ccc2O1 ?
Solution: 0.776

Problem: Which inhibition value belongs to CCOC(=O)C1=C(c2ccccc2)Nc2nc(C)nn2C1c1cccc(OC)c1OC (stereo not given) ?
Solution: 15.1

Problem: Which inhibition value belongs to O=C(Cn1c(=O)[nH]c2ccsc2c1=O)NC1CCCCCC1 ?
Solution: 9.21

Problem: Which inhibition value belongs to CCc1ccc(NS(=O)(=O)c2ccc3[nH]cc(C(=O)N4CCCCC4)c(=O)c3c2)cc1 ?
Solution: 24.4

Problem: Which inhibition value belongs to CN1CCN(CC(=O)Nc2ccc(Cl)cc2Cl)CC1 ?
Solution: 14.7

Problem: Which inhibition value belongs to COC(=O)Cn1cc(C(=O)c2cccs2)c2ccccc21 ?
Solution: 20.4

Problem: Which inhibition value belongs to CCOC(=O)CSc1nnc(CNC(=O)c2cccs2)n1-c1cc(OC)ccc1OC ?
Solution: 17.5

Problem: Which inhibition value belongs to CCCN(CCC)C(=O)CSc1nc2ccccc2c(=O)n1C1CCCC1 ?
Solution: 10.1

Problem: Which inhibition value belongs to COC(=O)CN(c1ccc(F)cc1)S(=O)(=O)c1ccccc1 ?
Solution: -8.76

Problem: Which inhibition value belongs to Cn1c(=O)c2c(nc(SCC(=O)O)n2Cc2cccc(C(F)(F)F)c2)n(C)c1=O ?
Solution: 13.8

Problem: Which inhibition value belongs to CN(C)C(=O)C12CCC(C)(c3nc4ccccc4nc31)C2(C)C (stereo not given) ?
Solution: -15.4

Problem: Which inhibition value belongs to COC(=O)Nc1ccc(S(=O)(=O)N(C)CC(F)(F)C(F)F)cc1 ?
Solution: 13.7

Problem: Which inhibition value belongs to Cc1ccc(C)c(Cn2c(=O)n(CCC(=O)NCc3ccco3)c(=O)c3sccc32)c1 ?
Solution: 16.1

Problem: Which inhibition value belongs to Nc1nnc(Cc2ccc(Cl)cc2)s1 ?
Solution: 13

Problem: Which inhibition value belongs to CCOC(=O)c1[nH]nc(-c2c(O)cc(C)cc2O)c1-c1csc(C)n1 ?
Solution: -0.807

Problem: Which inhibition value belongs to CS(=O)(=O)N1CCN(CC2CC3C=CC2C3)CC1 (stereo not given) ?
Solution: 25.1

Problem: Which inhibition value belongs to CCN1CCCC1CNCc1ccc(Cl)cc1Cl (stereo not given) ?
Solution: 5.14

Problem: Which inhibition value belongs to Cc1ccc(NC(=O)CSc2nnc(CCCCCNC(=O)OC(C)(C)C)o2)c(C)c1 ?
Solution: 12.1

Problem: Which inhibition value belongs to O=C(NCCN1CCOCC1)C1CC(=O)N(c2ccc(F)c(Cl)c2)C1 (stereo not given) ?
Solution: 10.3

Problem: Which inhibition value belongs to O=C(NC1CCCCCC1)C1c2ccccc2C(=O)N1Cc1cccnc1 (stereo not given) ?
Solution: 17.1

Problem: Which inhibition value belongs to COC(=O)c1cc(O)c(OCc2ccccc2)c(O)c1 ?
Solution: -58.4

Problem: Which inhibition value belongs to CCCn1c(SCC(=O)Nc2nnc(-c3ccccc3)s2)nnc1-c1ccccn1 ?
Solution: -30

Problem: Which inhibition value belongs to CN(C)CCCN1c2ccccc2CCc2ccccc21 ?
Solution: 5.17

Problem: Which inhibition value belongs to CCOc1ccccc1N1C(=O)CC(Sc2ncccc2C(=O)O)C1=O (stereo not given) ?
Solution: 13.4

Problem: Which inhibition value belongs to CCN1C(=O)/C(=C/N2CCc3ccccc32)SC1=S ?
Solution: -99.1

Problem: Which inhibition value belongs to Cn1c(SCC(N)=O)nnc1C1CCN(S(=O)(=O)c2ccccc2C(F)(F)F)CC1 ?
Solution: 19.2

Problem: Which inhibition value belongs to CC(C)c1ccc(-c2nc(N3CCCCC3)[nH]c(=O)c2C#N)cc1 ?
Solution: -1.05

Problem: Which inhibition value belongs to CC1CCc2cc(F)cc3c(=O)c(C(=O)O)cn1c23 (stereo not given) ?
Solution: 32.9
